assay: Solubility of Compound A in several test solutions; assay type: physicochemical; conditions: ph 8.5 test solution; pH8.5, 6 hours, final pH 8.29

| Compound | solubility at 6 h / µg/mL |
| --- | --- |
| CC1(C)[C@H]2C[C@H](C/C=C\CCCC(=O)O)[C@@H](NC(=O)c3csc4ccc(O)cc34)[C@@H]1C2 | 6220 |

---

assay: Solubility of Compound A in several test solutions; format: physicochemical; details: ph 8.5 test solution; pH8.5, 3 hours, final pH 8.29

| Molecule | solubility at 3 h |
| --- | --- |
| CC1(C)[C@H]2C[C@H](C/C=C\CCCC(=O)O)[C@@H](NC(=O)c3csc4ccc(O)cc34)[C@@H]1C2 [Compound A] | 6200 µg/mL |

Entry source: patent EP1266655A1
